Recorded % Blocking values for a group of binders are listed next.
Target: human MSR1 extracellular domain expressed with a N-terminal nonahistidine tag (His9-hMSR1; R&D Systems, Cat #2708-MS) (human) (UniProt P21757)
Sequence (P21757 other isoform, or with tags, fused parts or gaps): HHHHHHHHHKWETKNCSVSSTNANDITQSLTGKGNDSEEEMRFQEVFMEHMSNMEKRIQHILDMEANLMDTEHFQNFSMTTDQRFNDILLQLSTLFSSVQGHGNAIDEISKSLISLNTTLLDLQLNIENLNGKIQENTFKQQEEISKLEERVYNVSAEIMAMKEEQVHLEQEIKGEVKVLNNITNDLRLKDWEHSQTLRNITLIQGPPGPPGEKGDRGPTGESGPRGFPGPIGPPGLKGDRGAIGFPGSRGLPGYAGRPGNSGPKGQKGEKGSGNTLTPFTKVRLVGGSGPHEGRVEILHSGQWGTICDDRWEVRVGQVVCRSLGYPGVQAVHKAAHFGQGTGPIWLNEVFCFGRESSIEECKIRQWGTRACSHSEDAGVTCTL
Assay: competition ELISA; 100 nM antibody, competitor Ac-LDL, plate-coated His9-hMSR1
Give the number; % is assumed, so skip it.

Completed entries (count: 2):
[
  {
    "BINDER": "H1H27734P-N297Q (antibody, human IgG1, V domains shown) VH: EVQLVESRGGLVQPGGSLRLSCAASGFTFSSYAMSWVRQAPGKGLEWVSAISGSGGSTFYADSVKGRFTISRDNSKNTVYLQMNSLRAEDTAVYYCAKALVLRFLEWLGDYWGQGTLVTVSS VL: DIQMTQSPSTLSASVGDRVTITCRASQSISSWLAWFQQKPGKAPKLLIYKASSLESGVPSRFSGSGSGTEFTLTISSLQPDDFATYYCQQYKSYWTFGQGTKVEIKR",
    "REPORTED": -38
  },
  {
    "BINDER": "H1H27739P-N297Q (antibody, human IgG1, V domains shown) VH: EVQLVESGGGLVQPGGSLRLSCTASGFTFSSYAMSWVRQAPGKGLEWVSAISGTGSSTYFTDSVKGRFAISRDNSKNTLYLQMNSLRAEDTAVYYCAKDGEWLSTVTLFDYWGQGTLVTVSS VL: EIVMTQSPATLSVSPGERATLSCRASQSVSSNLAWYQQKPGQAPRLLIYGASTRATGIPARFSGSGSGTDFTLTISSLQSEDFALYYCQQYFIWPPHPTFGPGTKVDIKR",
    "REPORTED": -47
  }
]

Attention now turns to another entry.
State its % Blocking: H1H27754P-N297Q (antibody, human IgG1, V domains shown) VH: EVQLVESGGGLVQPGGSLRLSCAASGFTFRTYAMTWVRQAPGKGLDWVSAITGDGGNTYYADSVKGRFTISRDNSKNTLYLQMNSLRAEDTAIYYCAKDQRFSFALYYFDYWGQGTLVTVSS VL: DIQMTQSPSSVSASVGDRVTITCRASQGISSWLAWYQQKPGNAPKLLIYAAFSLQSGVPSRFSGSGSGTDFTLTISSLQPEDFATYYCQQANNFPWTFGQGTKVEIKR
-42
